Molecular target: T1, human CD40 (human, UniProt P25942 21-193)
T1 construct: also called huCD40; TNFRSF5
T1 sequence (P25942 21-193 limits assumed): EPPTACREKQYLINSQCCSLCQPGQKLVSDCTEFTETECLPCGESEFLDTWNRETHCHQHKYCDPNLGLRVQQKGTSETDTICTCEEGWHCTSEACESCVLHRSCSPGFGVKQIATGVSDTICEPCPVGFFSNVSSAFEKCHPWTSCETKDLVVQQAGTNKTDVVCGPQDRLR
Assay: ELISA
pKd: −log10 of the molar value.
recorded_metric: pKd

12D6-24 variant L2H2 (antibody, human IgG1, V domains shown) VH: QVQLVQSGAEVKKPGSSVKVSCKASGYTFTGYNMNWVRQAPGQGLEWMGNIDPYYGNTNYNQKFKGKTTLTADKSTSTAYMELSSLRSDDTAVYYCARLGLQLYALDYWGQGTLVTVSS VL: EIVMTQSPATLSVSPGERATLSCRASQSVSSNLAWYQQKPGQAPRLLIYKLTNRFFGIPARFSGSGSGTDFTLTISRVEAEDFAVYYCQQSIHVPWTFGQGTKVEIK    < 7.00

*Q* What value of pKd has been reported for the following binder? 12D6-24 variant L2H1 (antibody, human IgG1, V domains shown) VH: QVQLVQSGAEVKKPGASVKVSCKASGYTFTGYNMNWVRQAPGQGLEWMGNIDPYYGNTNYNQKFKGRVTMTTDTSTSTAYMELRSLRSDDTAVYYCARLGLQLYALDYWGQGTTVTVSS VL: EIVMTQSPATLSVSPGERATLSCRASQSVSSNLAWYQQKPGQAPRLLIYKLTNRFFGIPARFSGSGSGTDFTLTISRVEAEDFAVYYCQQSIHVPWTFGQGTKVEIK
*A* < 7.00

*Q* What value of pKd has been reported for the following binder? 12D6-24 variant L3H1 (antibody, human IgG1, V domains shown) VH: QVQLVQSGAEVKKPGASVKVSCKASGYTFTGYNMNWVRQAPGQGLEWMGNIDPYYGNTNYNQKFKGRVTMTTDTSTSTAYMELRSLRSDDTAVYYCARLGLQLYALDYWGQGTTVTVSS VL: EIVMTQSPATLSVSPGERATLSCRSSQSLVHSNANTYQQKPGQAPRLLIYKLTNRFFGIPDRFSGSGSGTDFTLTISRVEAEDFAVYYCQQSIHVPWTFGQGTKVEIK
*A* < 7.00
